Target: T1, 4H458-AA
T1 chain: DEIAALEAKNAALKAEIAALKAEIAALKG
Experiment: two-hybrid library CCmax;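 note: natural log of median RNA to DNA barcode read ratio; higher means stronger binding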
Details: mean of both orientations
readout.kind: interaction score

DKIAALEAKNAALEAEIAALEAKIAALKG [4H2438-AA] :: 2.03

(P) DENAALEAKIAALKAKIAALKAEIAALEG [4H1385-AA]
(Q) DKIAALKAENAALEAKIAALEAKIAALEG [4H2725-AA]
(R) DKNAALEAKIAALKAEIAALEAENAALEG [4H3395-AA]
Exercise: Sort by interaction score, descending. Write out the labels following the order that was asked for.
Key: Q, P, R
